Target: rBIIa/beta 1 sodium channels expressed in Xenopus oocytes (Rattus norvegicus, UniProt P04775)
Sequence (P04775 whole entry): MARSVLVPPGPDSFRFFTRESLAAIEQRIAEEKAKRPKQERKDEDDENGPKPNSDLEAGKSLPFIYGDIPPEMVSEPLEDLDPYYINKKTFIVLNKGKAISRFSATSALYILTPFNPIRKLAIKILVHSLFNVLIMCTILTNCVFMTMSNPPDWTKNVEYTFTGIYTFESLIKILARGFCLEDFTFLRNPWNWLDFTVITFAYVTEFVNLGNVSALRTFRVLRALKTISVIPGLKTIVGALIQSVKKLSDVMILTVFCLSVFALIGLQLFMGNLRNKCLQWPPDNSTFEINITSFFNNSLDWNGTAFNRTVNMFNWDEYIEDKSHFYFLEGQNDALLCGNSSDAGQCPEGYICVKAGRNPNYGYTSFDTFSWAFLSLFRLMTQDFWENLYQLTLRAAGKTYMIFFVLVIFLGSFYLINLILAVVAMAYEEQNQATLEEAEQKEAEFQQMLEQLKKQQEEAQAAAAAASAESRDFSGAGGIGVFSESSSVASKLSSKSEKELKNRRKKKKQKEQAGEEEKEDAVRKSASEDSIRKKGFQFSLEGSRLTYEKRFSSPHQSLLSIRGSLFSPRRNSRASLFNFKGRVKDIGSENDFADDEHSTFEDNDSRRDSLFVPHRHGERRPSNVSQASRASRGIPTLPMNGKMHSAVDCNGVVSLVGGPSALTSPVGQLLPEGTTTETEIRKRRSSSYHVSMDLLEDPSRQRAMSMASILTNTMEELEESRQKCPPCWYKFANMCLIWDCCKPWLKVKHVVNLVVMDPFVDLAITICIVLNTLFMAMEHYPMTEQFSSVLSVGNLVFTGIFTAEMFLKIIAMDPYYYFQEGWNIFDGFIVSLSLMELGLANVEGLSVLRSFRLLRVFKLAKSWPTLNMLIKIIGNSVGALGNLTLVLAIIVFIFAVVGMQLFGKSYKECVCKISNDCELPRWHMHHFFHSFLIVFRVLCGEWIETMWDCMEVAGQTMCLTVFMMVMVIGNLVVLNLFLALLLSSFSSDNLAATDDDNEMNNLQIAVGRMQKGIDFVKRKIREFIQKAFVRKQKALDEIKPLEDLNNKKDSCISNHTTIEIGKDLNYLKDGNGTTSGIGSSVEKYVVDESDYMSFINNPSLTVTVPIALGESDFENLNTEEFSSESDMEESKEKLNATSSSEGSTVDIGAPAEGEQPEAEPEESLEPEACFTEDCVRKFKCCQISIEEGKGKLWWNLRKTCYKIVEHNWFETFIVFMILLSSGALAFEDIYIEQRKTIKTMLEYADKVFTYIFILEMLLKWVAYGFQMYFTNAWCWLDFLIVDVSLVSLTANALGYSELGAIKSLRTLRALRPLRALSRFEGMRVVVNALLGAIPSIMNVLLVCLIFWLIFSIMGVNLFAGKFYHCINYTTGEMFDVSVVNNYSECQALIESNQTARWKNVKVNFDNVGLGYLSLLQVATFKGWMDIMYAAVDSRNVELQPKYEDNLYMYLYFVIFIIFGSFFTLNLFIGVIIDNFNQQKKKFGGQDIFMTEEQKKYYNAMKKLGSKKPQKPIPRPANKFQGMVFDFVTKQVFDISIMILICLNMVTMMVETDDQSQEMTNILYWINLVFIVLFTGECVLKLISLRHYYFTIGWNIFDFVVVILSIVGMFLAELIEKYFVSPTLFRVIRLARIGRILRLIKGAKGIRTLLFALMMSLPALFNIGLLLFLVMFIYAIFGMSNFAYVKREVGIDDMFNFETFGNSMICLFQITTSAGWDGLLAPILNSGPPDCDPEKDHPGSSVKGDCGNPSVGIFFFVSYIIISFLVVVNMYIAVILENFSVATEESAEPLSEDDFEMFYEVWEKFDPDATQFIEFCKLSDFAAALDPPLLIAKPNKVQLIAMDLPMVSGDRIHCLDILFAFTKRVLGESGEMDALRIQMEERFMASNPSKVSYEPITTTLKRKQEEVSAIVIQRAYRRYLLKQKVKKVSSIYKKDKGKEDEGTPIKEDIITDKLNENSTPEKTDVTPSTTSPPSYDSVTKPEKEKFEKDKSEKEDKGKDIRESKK
Sequence (Q00954 19-218 partner): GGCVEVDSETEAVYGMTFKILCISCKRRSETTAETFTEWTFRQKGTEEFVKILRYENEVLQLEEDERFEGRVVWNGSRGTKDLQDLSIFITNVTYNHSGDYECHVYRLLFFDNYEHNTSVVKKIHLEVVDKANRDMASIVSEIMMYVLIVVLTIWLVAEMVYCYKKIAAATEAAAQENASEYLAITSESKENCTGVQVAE
Assay: Electrophysiological assay (two-electrode voltage clamp), sodium channel inhibition, inactivated state
Conditions: apparent Ki from single point inhibition data; rat brain type IIa/beta 1 channels in Xenopus oocytes; test pulse after 4 second depolarization from -120 mV holding potential; read-out: Ki (inhibition constant for sodium channel inhibition)
Protocol: An electrophysiological assay was used to measure potencies of compounds of the present invention rBIIa/beta 1 sodium channels expressed in Xenopus oocytes. […] Electrophysiology: Membrane current responses are recorded in frog Ringer solution containing 115 mM NaCl, 2 mM KCl, 1.8 mM CaCl2, 5 mM HEPES, pH 7.4. […] The purpose is to find compounds that are state dependent modifiers of neuronal sodium channels. […] Data is acquired using PCLAMP 8.0 software and analyzed with CLAMPFIT software (Axon instruments). […]
Measured pKi, listed per entry.
# pKi: negative log10 of molar concentration; output just the value

>  <testSmiles>
Nc1cc(=O)[nH]c(-c2ccc(Oc3ccc(F)cc3)cc2)n1

>  <reportedEndpoint>
pKi

>  <assayResult>
6.33

$$$$
>  <testSmiles>
Nc1nc(-c2ccccc2)[nH]c(=O)c1Cc1ccccc1Cl

>  <reportedEndpoint>
pKi

>  <assayResult>
4.31

$$$$

Please examine the following record next.
Look up pKi: Nc1nc(-c2ccc(Oc3ccc(F)cc3)cc2)[nH]c(=O)c1Cc1ccccc1Cl
4.51
